# experiment.summary: Phase I study CXR1002-001: plasma pharmacokinetics (LC-MS/MS)
# Format: in vivo, human
# assay.conditions: human, plasma, oral, 50 mg, Patient 001 Dose 50 mg; 0.5 hr
measurement.label: concentration at 0.5 hr
Put your answer as a value accompanied by its unit after it.

[ask] Which concentration at 0.5 hr is reported for this compound? O=C(O)C(F)(F)C(F)(F)C(F)(F)C(F)(F)C(F)(F)C(F)(F)C(F)(F)F
[reply] 1110 nM

###

# experiment.summary: Phase I study CXR1002-001: plasma pharmacokinetics (LC-MS/MS)
# Assay type: in vivo, human
# assay.conditions: human, plasma, oral, 450 mg, Patient 015 Dose 450 mg; 672 hr (Day 29); read-out: Concentration
measurement.label: concentration at 672 h (µM)
Give bare numbers, in µM.

[ask] Which concentration at 672 h is reported for this molecule? O=C(O)C(F)(F)C(F)(F)C(F)(F)C(F)(F)C(F)(F)C(F)(F)C(F)(F)F
[reply] 544

###

# experiment.summary: Phase I study CXR1002-001: plasma pharmacokinetics (LC-MS/MS)
# Format: in vivo, human
# assay.conditions: human, plasma, oral, 200 mg, Patient 009 Dose 200 mg; 168 hr (Day 8); read-out: Concentration
measurement.label: concentration at 168 h (µM)
Answers are plain numbers, in µM.

[ask] Which concentration at 168 h is reported for this molecule? O=C(O)C(F)(F)C(F)(F)C(F)(F)C(F)(F)C(F)(F)C(F)(F)C(F)(F)F
[reply] 60.1

###

# experiment.summary: Phase I study CXR1002-001: plasma pharmacokinetics (LC-MS/MS)
# Assay type: in vivo, human
# assay.conditions: human, plasma, oral, 300 mg, Patient 014 Dose 300 mg; 843 hr; read-out: Concentration
# Excerpt: PK samples, PD (fasting) samples, blood glucose, and blood triglyceride samples, were taken over a 6-week period. Dose limiting toxicity (DLT) will be based on the toxicity assessments over the first 3-week period of the repeat dosing schedule. […]
measurement.label: concentration at 843 h (µM)
One number for each entry, in µM.

[ask] Which concentration at 843 h is reported for this compound? O=C(O)C(F)(F)C(F)(F)C(F)(F)C(F)(F)C(F)(F)C(F)(F)C(F)(F)F
[reply] 520

###

# experiment.summary: Phase I study CXR1002-001: plasma pharmacokinetics (LC-MS/MS)
# Type: in vivo, human
# assay.conditions: human, plasma, oral, 1200 mg, Patient 034, 1200 mg, person, plasma, 3 hr; read-out: Concentration
measurement.label: concentration at 3 hr (µM)
Give bare numbers, in µM.

[ask] Which concentration at 3 hr is reported for this molecule? O=C(O)C(F)(F)C(F)(F)C(F)(F)C(F)(F)C(F)(F)C(F)(F)C(F)(F)F
[reply] 401

###

# experiment.summary: Phase I study CXR1002-001: plasma pharmacokinetics (LC-MS/MS)
# Assay type: in vivo, human
# assay.conditions: human, plasma, oral, 50 mg, Patient 004 Dose 50 mg; 507 hr; read-out: Concentration
measurement.label: concentration at 507 h
Put your answer as a value accompanied by its unit after it.

[ask] Which concentration at 507 h is reported for this compound? O=C(O)C(F)(F)C(F)(F)C(F)(F)C(F)(F)C(F)(F)C(F)(F)C(F)(F)F
[reply] 50.4 µM
